meta.source: the kinase profiling compilation of Christmann-Franck et al. (2016)

- Target: ERBB4 (human) (UniProt Q15303)
- Sequence (Q15303 whole entry, looked up): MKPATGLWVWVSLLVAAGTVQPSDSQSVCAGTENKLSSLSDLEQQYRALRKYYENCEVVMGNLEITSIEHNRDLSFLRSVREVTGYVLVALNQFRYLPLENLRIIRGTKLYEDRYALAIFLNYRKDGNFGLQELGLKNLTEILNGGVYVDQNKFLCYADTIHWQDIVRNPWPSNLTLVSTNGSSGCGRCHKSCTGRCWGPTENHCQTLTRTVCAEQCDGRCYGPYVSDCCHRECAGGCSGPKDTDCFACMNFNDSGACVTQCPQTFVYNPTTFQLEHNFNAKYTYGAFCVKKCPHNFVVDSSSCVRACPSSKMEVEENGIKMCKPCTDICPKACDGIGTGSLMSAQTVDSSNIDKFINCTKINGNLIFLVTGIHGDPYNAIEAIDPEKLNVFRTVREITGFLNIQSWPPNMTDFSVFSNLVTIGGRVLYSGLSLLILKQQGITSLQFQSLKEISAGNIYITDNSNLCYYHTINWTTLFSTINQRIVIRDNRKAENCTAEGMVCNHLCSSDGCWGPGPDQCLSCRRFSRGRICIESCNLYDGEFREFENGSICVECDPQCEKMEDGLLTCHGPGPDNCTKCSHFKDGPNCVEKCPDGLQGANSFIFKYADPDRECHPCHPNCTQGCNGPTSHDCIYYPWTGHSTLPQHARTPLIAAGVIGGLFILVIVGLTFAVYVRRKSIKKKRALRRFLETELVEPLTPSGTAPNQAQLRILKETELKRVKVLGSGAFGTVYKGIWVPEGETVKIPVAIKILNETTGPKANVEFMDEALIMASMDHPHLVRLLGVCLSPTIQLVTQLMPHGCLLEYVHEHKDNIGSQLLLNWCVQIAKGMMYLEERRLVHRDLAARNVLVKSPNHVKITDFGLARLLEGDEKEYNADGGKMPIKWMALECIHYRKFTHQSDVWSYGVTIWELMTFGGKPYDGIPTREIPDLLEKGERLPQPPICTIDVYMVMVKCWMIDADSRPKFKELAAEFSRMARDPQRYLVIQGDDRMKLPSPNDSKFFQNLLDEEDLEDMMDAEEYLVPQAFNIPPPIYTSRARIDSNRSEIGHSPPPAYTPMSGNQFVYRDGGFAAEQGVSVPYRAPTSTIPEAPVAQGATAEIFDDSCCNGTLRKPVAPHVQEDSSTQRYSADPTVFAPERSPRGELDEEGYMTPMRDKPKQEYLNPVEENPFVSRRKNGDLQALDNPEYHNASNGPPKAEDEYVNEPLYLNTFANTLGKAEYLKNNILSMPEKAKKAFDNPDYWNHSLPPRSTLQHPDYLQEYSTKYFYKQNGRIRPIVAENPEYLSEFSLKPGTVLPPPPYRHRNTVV
- Protocol Text: radiometric filter-binding kinase assay, Kinase HotSpot
- Measurement Conditions: compound 0.5 µM; ATP 10 µM
Endpoint: residual activity (%)

{"columns": ["Compound", "Endpoint Unit", "Numeric Result"],
 "data": [
  ["O=C1NC(=O)C(c2cn(CCCO)c3ncccc23)=C1c1cnccn1", "%", 115],
  ["O=C(O)/C=C/c1cc(Br)c(Br)c(Br)c1Br", "%", 104],
  ["CC(C)[C@H](CO)Nc1nc(Nc2cc(N)cc(Cl)c2)c2ncn(C(C)C)c2n1", "%", 131],
  ["Oc1ccc(Nc2nc(-c3ccc(Cl)cc3)cs2)cc1", "%", 83.3],
  ["CC(=O)O/N=C1\\C(=C2\\C(=O)Nc3cc(Br)ccc32)Nc2ccccc21", "%", 101],
  ["Cc1nc2cc3nc(-c4cccs4)cnc3cc2n1C", "%", 95],
  ["Cn1sc(=O)n(Cc2ccccc2)c1=O", "%", 104],
  ["CN(C)C[C@H]1CCn2c(c(C3=C(c4cn(C)c5ccccc45)C(=O)NC3=O)c3ccccc32)C1", "%", 84.3]
]}

----------
Measured residual activity accompanies every entry in the list below.
- Target: PKN2 (human) (UniProt Q16513)
- Sequence (Q16513 whole entry, looked up): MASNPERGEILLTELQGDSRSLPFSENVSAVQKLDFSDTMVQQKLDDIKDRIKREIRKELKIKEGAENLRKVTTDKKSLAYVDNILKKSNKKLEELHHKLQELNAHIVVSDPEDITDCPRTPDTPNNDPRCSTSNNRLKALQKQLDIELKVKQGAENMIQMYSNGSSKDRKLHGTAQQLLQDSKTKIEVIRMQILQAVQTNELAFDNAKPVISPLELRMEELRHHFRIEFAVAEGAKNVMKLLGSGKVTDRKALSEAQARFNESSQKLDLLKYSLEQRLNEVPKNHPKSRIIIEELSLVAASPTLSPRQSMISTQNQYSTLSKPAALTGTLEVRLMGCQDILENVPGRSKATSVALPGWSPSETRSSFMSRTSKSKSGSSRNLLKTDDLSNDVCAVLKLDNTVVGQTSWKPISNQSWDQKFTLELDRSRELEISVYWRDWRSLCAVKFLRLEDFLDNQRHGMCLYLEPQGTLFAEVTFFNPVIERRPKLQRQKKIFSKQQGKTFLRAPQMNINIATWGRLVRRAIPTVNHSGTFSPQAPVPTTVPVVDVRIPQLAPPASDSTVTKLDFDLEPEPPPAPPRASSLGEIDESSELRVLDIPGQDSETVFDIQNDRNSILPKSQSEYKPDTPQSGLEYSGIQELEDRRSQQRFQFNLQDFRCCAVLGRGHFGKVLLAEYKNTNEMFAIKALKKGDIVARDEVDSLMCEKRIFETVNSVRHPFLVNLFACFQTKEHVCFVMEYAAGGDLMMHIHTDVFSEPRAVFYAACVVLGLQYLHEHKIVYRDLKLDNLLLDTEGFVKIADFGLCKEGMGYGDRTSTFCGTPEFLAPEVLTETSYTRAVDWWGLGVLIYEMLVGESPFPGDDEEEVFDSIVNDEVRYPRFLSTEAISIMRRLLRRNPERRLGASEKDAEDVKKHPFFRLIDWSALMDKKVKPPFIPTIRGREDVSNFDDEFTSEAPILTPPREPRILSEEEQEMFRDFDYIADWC
- Protocol Text: radiometric filter-binding kinase assay, Kinase HotSpot
- Measurement Conditions: compound 0.5 µM; ATP 10 µM

{"columns": ["Compound", "Endpoint Unit", "residual activity"],
 "data": [
  ["O=C1NC(=O)C(c2c[nH]c3ccccc23)=C1c1c[nH]c2ccccc12", "%", 103],
  ["O=C1Nc2ccccc2/C1=C1/Nc2ccccc2/C1=N\\OCCC(O)CO (stereo unspecified)", "%", 90.1],
  ["COc1ccc(OC)c2c(=S)c3ccccc3[nH]c12", "%", 105],
  ["Nc1nccc(-c2c(-c3ccc(F)cc3)ncn2C2CCNCC2)n1", "%", 97.1],
  ["Oc1ccc(Nc2nc(-c3ccc(Cl)cc3)cs2)cc1", "%", 93.8],
  ["Cn1nc2c3c(cccc31)C(=O)c1ccccc1-2", "%", 97.3],
  ["CCn1cnc2c(Nc3cccc(Cl)c3)nc(N[C@@H]3CCCC[C@@H]3N)nc21", "%", 90.3],
  ["O=C(CCCc1ccc(-c2ccccc2F)cc1)Nc1ccc(O)cc1", "%", 89.8],
  ["Cn1sc(=O)n(Cc2ccccc2)c1=O", "%", 97.2],
  ["O=C(Nc1cccc(Nc2cc(Nc3cccc(C(F)(F)F)c3)ncn2)c1)C1CC1", "%", 95.9],
  ["Cc1nc2cc3nc(-c4cccs4)cnc3cc2n1C", "%", 71],
  ["O=C1Nc2ccccc2/C1=C1\\Nc2ccccc2\\C1=N/O", "%", 97.8],
  ["CN(C)C[C@H]1CCn2c(c(C3=C(c4cn(C)c5ccccc45)C(=O)NC3=O)c3ccccc32)C1", "%", 87],
  ["CN([C@@H](Cc1ccc(OS(=O)(=O)c2cccc3cnccc23)cc1)C(=O)N1CCN(c2ccccc2)CC1)S(=O)(=O)c1cccc2cnccc12", "%", 98.6],
  ["COc1cc2ncc(-c3ccccc3)nc2cc1OC", "%", 88.3],
  ["COc1cc2ncnc(N3CCN(C(=O)Nc4ccc(Oc5ccccc5)cc4)CC3)c2cc1OC", "%", 99.1]
]}

----------
- Target: CDK3 CCNE1 (human) (UniProt Q00526+P24864)
- Sequence (P24864 whole entry, looked up): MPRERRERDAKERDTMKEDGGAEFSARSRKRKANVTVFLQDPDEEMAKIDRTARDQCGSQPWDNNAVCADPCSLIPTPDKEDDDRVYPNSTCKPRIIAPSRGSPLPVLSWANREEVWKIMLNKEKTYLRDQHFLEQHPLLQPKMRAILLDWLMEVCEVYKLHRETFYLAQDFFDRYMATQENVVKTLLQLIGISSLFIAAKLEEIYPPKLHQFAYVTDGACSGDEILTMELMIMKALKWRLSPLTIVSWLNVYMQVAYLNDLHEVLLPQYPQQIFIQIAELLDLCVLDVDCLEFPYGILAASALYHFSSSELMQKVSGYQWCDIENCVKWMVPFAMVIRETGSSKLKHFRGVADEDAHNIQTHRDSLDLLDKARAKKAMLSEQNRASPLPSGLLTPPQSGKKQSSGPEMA
- Sequence (Q00526 whole entry, looked up): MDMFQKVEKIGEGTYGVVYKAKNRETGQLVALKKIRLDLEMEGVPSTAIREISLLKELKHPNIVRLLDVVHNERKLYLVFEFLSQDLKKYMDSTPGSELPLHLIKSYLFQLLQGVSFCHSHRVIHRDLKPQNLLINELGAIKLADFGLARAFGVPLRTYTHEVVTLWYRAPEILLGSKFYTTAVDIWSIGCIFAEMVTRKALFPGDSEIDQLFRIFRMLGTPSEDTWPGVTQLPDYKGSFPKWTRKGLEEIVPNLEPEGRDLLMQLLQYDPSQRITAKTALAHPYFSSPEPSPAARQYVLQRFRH
- Protocol Text: radiometric filter-binding kinase assay, Kinase HotSpot
- Measurement Conditions: compound 0.5 µM; ATP 10 µM
Quick reference for residual activity among some compounds

{"columns": ["Compound", "Endpoint Unit", "residual activity"],
 "data": [
  ["CC(C)[C@H](CO)Nc1nc(Nc2cc(N)cc(Cl)c2)c2ncn(C(C)C)c2n1", "%", 31.9],
  ["Nc1nccc(-c2c(-c3ccc(F)cc3)ncn2C2CCNCC2)n1", "%", 95.5],
  ["COc1cc2ncnc(N3CCN(C(=O)Nc4ccc(Oc5ccccc5)cc4)CC3)c2cc1OC", "%", 82],
  ["O=C(O)/C=C/c1cc(Br)c(Br)c(Br)c1Br", "%", 98.3],
  ["O=C1NC(=O)C(c2cn(CCCO)c3ncccc23)=C1c1cnccn1", "%", 89.4],
  ["O=C(Nc1cccc(Nc2cc(Nc3cccc(C(F)(F)F)c3)ncn2)c1)C1CC1", "%", 94.8]
]}

----------
Here the recorded residual activity is given for each entry.
- Target: ADRBK1 (human) (UniProt P25098)
- Sequence (P25098 whole entry, looked up): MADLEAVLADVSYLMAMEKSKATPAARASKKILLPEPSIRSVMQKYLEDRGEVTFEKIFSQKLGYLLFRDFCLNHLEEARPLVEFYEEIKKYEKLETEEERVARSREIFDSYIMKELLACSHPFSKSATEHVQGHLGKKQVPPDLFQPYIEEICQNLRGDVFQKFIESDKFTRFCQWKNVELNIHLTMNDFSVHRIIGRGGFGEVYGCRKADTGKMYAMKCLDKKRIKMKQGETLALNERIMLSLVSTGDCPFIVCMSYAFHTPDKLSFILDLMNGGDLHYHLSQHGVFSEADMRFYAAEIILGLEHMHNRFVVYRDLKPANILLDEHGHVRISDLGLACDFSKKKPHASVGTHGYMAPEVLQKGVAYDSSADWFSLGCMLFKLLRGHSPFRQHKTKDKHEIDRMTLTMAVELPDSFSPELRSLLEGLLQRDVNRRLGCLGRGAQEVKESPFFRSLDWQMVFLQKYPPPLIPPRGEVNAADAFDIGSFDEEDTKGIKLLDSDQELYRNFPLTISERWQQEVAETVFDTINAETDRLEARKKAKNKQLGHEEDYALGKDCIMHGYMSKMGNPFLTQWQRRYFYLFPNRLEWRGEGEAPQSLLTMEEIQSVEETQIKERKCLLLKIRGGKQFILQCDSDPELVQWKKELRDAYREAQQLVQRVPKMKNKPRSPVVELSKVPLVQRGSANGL
- Protocol Text: radiometric filter-binding kinase assay, Kinase HotSpot
- Measurement Conditions: compound 0.5 µM; ATP 10 µM
Endpoint: residual activity (%)

{"columns": ["Compound", "Numeric Result"],
 "data": [
  ["O=C(CCCc1ccc(-c2ccccc2F)cc1)Nc1ccc(O)cc1", 105],
  ["CCn1cnc2c(Nc3cccc(Cl)c3)nc(N[C@@H]3CCCC[C@@H]3N)nc21", 96.5],
  ["COc1cc2ncc(-c3ccccc3)nc2cc1OC", 95.8]
]}

----------
Documented residual activity across a set of molecules
- Target: MST4 (human) (UniProt Q9P289)
- Sequence (Q9P289 whole entry, looked up): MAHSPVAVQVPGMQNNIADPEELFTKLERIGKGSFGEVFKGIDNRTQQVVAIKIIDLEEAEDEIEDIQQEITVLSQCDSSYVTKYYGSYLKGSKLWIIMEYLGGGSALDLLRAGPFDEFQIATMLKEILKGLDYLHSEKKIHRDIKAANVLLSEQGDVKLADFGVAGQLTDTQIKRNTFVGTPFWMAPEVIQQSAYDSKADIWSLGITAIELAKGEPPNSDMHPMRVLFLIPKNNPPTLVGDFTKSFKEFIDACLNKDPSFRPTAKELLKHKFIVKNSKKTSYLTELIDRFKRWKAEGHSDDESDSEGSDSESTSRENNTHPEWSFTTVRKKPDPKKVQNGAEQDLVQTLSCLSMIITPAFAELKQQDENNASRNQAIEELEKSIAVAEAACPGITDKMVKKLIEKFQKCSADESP
- Protocol Text: radiometric filter-binding kinase assay, Kinase HotSpot
- Measurement Conditions: compound 0.5 µM; ATP 10 µM
Endpoint: residual activity

{"columns": ["Molecule", "Result"],
 "data": [
  ["O=C1Nc2ccccc2/C1=C1/Nc2ccccc2/C1=N\\OCCC(O)CO (stereo not drawn)", "73.1%"],
  ["Cn1nc2c3c(cccc31)C(=O)c1ccccc1-2", "108%"],
  ["O=C1Nc2ccccc2/C1=C1\\Nc2ccccc2\\C1=N/O", "75.3%"],
  ["CCN(CC)CCCCN1c2ccccc2Oc2ccc(Cl)cc21", "98%"],
  ["COc1cc2ncnc(N3CCN(C(=O)Nc4ccc(Oc5ccccc5)cc4)CC3)c2cc1OC", "95.4%"],
  ["CCn1cnc2c(Nc3cccc(Cl)c3)nc(N[C@@H]3CCCC[C@@H]3N)nc21", "104%"],
  ["O=C(O)/C=C/c1cc(Br)c(Br)c(Br)c1Br", "88.7%"],
  ["CN(C)C[C@H]1CCn2c(c(C3=C(c4cn(C)c5ccccc45)C(=O)NC3=O)c3ccccc32)C1", "78%"]
]}

----------
Item-by-item account of residual activity
- Target: MATK (human)
- Protocol Text: radiometric filter-binding kinase assay, Kinase HotSpot
- Measurement Conditions: compound 0.5 µM; ATP 10 µM
Endpoint: residual activity (%)

{"columns": ["Compound", "Numeric Result"],
 "data": [
  ["Cn1cnc2cc3c(Nc4cccc(Br)c4)ncnc3cc21", 85.9],
  ["O=C(Nc1cccc(Nc2cc(Nc3cccc(C(F)(F)F)c3)ncn2)c1)C1CC1", 96.1],
  ["O=C1NC(=O)C(c2c[nH]c3ccccc23)=C1c1c[nH]c2ccccc12", 91.1],
  ["COc1cc2ncnc(N3CCN(C(=O)Nc4ccc(Oc5ccccc5)cc4)CC3)c2cc1OC", 96.8],
  ["O=C1Nc2ccccc2/C1=C1\\Nc2ccccc2\\C1=N/O", 98],
  ["O=C1Cc2c([nH]c3ccc(Br)cc23)-c2ccccc2N1", 93.6],
  ["CC(C)[C@H](CO)Nc1nc(Nc2cc(N)cc(Cl)c2)c2ncn(C(C)C)c2n1", 111],
  ["CN(C)C[C@H]1CCn2c(c(C3=C(c4cn(C)c5ccccc45)C(=O)NC3=O)c3ccccc32)C1", 95],
  ["CCN(CC)CCCCN1c2ccccc2Oc2ccc(Cl)cc21", 99.9],
  ["Cc1nc2cc3nc(-c4cccs4)cnc3cc2n1C", 100],
  ["Oc1ccc(Nc2nc(-c3ccc(Cl)cc3)cs2)cc1", 95.6],
  ["O=C1NC(=O)/C(=C\\c2ccc3nccnc3c2)S1", 90.5]
]}

----------
Quick reference for residual activity among some compounds
- Target: EPHA5 (human) (UniProt P54756)
- Protocol Text: radiometric filter-binding kinase assay, Kinase HotSpot
- Measurement Conditions: compound 0.5 µM; ATP 10 µM

{"columns": ["Compound", "residual activity [%]"],
 "data": [
  ["O=C1Cc2c([nH]c3ccc(Br)cc23)-c2ccccc2N1", 96.6],
  ["Cn1sc(=O)n(Cc2ccccc2)c1=O", 103],
  ["Nc1nccc(-c2c(-c3ccc(F)cc3)ncn2C2CCNCC2)n1", 97.8],
  ["Cn1nc2c3c(cccc31)C(=O)c1ccccc1-2", 126],
  ["CN([C@@H](Cc1ccc(OS(=O)(=O)c2cccc3cnccc23)cc1)C(=O)N1CCN(c2ccccc2)CC1)S(=O)(=O)c1cccc2cnccc12", 102],
  ["CC(C)c1nn(-c2c(Cl)cccc2Cl)c2nc(Cc3ccc(OCCO)cc3)nc(O)c12", 110],
  ["CN(C)C[C@H]1CCn2c(c(C3=C(c4cn(C)c5ccccc45)C(=O)NC3=O)c3ccccc32)C1", 95.1],
  ["O=C1Nc2ccccc2/C1=C1/Nc2ccccc2/C1=N\\OCCC(O)CO (configuration not stated)", 68],
  ["O=C1NC(=O)/C(=C\\c2ccc3nccnc3c2)S1", 99.5],
  ["COc1cc2ncnc(N3CCN(C(=O)Nc4ccc(Oc5ccccc5)cc4)CC3)c2cc1OC", 98.3],
  ["COc1ccc(OC)c2c(=S)c3ccccc3[nH]c12", 114],
  ["O=C1NC(=O)C(c2cn(CCCO)c3ncccc23)=C1c1cnccn1", 99.4]
]}
